Assay: self-splicing fitness, log relative to wild type (ln ratio); higher = more splicing; Tetrahymena group I intron in knt gene, E. coli kanamycin selection, DiMSum; sequences stand for … in CUCUCU…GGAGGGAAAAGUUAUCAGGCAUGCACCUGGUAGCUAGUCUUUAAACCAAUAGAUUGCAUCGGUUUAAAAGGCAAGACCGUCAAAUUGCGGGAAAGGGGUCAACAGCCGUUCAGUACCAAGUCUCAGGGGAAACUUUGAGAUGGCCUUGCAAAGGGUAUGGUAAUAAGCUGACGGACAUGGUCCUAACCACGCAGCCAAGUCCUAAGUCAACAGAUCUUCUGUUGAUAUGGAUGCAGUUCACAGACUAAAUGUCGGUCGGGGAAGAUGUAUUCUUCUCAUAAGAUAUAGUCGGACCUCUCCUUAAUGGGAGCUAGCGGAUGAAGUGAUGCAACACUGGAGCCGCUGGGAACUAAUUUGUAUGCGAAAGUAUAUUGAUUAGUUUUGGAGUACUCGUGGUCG;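 also: selection with 25 µg/mL kanamycin versus none on LB agar overnight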
Conditions: 37 °C

{"query-sequence": "UGCAAGCAAUAUUACGCCUG", "self-splicing fitness (ln)": -2.5}
{"query-sequence": "AUUAAGCAAUAUUACGCCGU", "self-splicing fitness (ln)": -0.369}
{"query-sequence": "UUGCAGCAAUAUUACGAGUG", "self-splicing fitness (ln)": -1.46}
{"query-sequence": "GGCCAGCAAUAUUACGAGGA", "self-splicing fitness (ln)": -1.26}
{"query-sequence": "GGAUAGCAAUAUUACGGGUC", "self-splicing fitness (ln)": -2.64}
{"query-sequence": "GAUGAGCAAUAUUACGGCGA", "self-splicing fitness (ln)": -1.38}
{"query-sequence": "GUUAAGCAAUAUUACGUUAA", "self-splicing fitness (ln)": -1.79}
{"query-sequence": "GUAAAGCAAUAUUACGGCUG", "self-splicing fitness (ln)": 0.175}
{"query-sequence": "AGUAAGCAAUAUUACGUCAC", "self-splicing fitness (ln)": -2.11}
{"query-sequence": "AAAUAGCAAUAUUACGAAUA", "self-splicing fitness (ln)": -1.18}
{"query-sequence": "UAUCAGCAAUAUUACGGCCU", "self-splicing fitness (ln)": 0.0592}
{"query-sequence": "GAUCAGCAAUAUUACGGCUG", "self-splicing fitness (ln)": -1.12}
{"query-sequence": "GCCCAGCAAUAUUACGAUUU", "self-splicing fitness (ln)": -0.735}
{"query-sequence": "GGCAAGCAAUAUUACGUUCG", "self-splicing fitness (ln)": -0.196}
{"query-sequence": "AGUAAGCAAUAUUACGCACC", "self-splicing fitness (ln)": -0.969}
{"query-sequence": "GAACAGCAAUAUUACGUCUC", "self-splicing fitness (ln)": -0.443}
{"query-sequence": "CAGCAGCAAUAUUACGCUCG", "self-splicing fitness (ln)": -0.385}

* * *

Assay: self-splicing fitness, log relative to wild type (ln ratio); higher = more splicing; Tetrahymena group I intron in knt gene, E. coli kanamycin selection, DiMSum; sequences stand for … in CUCUCU…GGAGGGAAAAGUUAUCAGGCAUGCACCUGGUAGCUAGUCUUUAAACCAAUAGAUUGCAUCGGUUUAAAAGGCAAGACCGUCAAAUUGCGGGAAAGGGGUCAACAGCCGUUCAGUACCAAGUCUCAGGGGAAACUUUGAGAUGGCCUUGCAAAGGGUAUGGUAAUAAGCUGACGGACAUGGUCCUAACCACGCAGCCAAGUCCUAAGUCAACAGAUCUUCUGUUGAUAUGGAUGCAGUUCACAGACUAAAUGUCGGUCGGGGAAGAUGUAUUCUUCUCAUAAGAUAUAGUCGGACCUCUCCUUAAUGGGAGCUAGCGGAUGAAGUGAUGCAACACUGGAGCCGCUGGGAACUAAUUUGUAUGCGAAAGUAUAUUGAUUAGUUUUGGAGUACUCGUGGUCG
Conditions: 37 °C
Grouping key: self-splicing fitness (ln). Bins: bottom range: < -2; center range: ≥ -2 and < -0.8; top range: ≥ -0.8

{"query-sequence": "UGGUAGCAAUAUUACGUUAG", "classification": "top range"}
{"query-sequence": "GACUAGCAAUAUUACGUGCA", "classification": "top range"}
{"query-sequence": "CGUCAGCAAUAUUACGUAUC", "classification": "bottom range"}
{"query-sequence": "GAGUAGCAAUAUUACGCAGG", "classification": "bottom range"}
{"query-sequence": "UAUAAGCAAUAUUACGACUC", "classification": "top range"}
{"query-sequence": "AUUUAGCAAUAUUACGCGUA", "classification": "center range"}
{"query-sequence": "UCCAAGCAAUAUUACGCGGC", "classification": "bottom range"}
{"query-sequence": "AGUCAGCAAUAUUACGUGUA", "classification": "top range"}
{"query-sequence": "CAACAGCAAUAUUACGAAAG", "classification": "top range"}
{"query-sequence": "GUGUAGCAAUAUUACGGGCU", "classification": "top range"}
{"query-sequence": "CUCGAGCAAUAUUACGGCUG", "classification": "center range"}
{"query-sequence": "GGUUAGCAAUAUUACGUAUC", "classification": "top range"}
{"query-sequence": "CUUGAGCAAUAUUACGGCCA", "classification": "bottom range"}
{"query-sequence": "UCAAAGCAAUAUUACGCAUG", "classification": "center range"}
{"query-sequence": "CUAAAGCAAUAUUACGGGUU", "classification": "bottom range"}
{"query-sequence": "CUGGAGCAAUAUUACGCUAG", "classification": "bottom range"}
{"query-sequence": "UCGUAGCAAUAUUACGCUGG", "classification": "center range"}
{"query-sequence": "UAUGAGCAAUAUUACGUGGU", "classification": "bottom range"}
{"query-sequence": "GUUCAGCAAUAUUACGAAAU", "classification": "top range"}
{"query-sequence": "GAAAAGCAAUAUUACGAUUC", "classification": "center range"}
{"query-sequence": "GUAGAGCAAUAUUACGUAAG", "classification": "center range"}
{"query-sequence": "ACAAAGCAAUAUUACGCUAC", "classification": "bottom range"}
{"query-sequence": "GACGAGCAAUAUUACGGGCA", "classification": "bottom range"}
{"query-sequence": "ACGGAGCAAUAUUACGGCGA", "classification": "center range"}
{"query-sequence": "ACUAAGCAAUAUUACGGUUA", "classification": "center range"}
{"query-sequence": "CGAUAGCAAUAUUACGCCUG", "classification": "top range"}
{"query-sequence": "CCGCAGCAAUAUUACGCAGG", "classification": "bottom range"}
